assay: AUC(0 to 96 hrs) in rat at 30 mg/kg, po; type: ADME, organism-based; parameters: time < 96 hr, route oral, dose 30 mg/kg; settings: in vivo
PROPERTY: AUC(0-t) at 96 h (ng·h/mL)
Answers are plain numbers, in ng·h/mL.

Qu. Data request, read-out AUC(0-t) at 96 h, for N#Cc1cccc([C@@H](NCC2CC2)c2ccc(F)c(NC(=O)c3cc(C(F)(F)F)nn3-c3cccc(CN)c3)c2)c1 (stereo in doubt) [BEROTRALSTAT]
Ans. 6180

---

assay: Half life in monkey at 25 mg/kg, po; assay type: ADME, organism-based, Macaca mulatta; conditions: rhesus monkey, in vivo
PROPERTY: half-life
Express the reported value numerically, then name its unit.

Qu. I am curious: what half-life value has been reported for N#Cc1cccc([C@@H](NCC2CC2)c2ccc(F)c(NC(=O)c3cc(C(F)(F)F)nn3-c3cccc(CN)c3)c2)c1 (stereo in doubt) ?
Ans. 22.7 h
